Experiment: gradient 5% acetonitrile 3 min, to 50% in 2 min, to 85% in 15 min, held 3 min, 100 µL/min
Settings: column: Zorbax Extend-C18 2.1 x 50 mm; eluents: water / acetonitrile, 0.1% formic acid
In this section we review reported RP-LC retention time values for a set of compounds.
Quick reminder: number only, in s, skip the unit.

// sample CC(CCc1ccco1)NC(=O)C1CCc2nc(N3CCCCC3)ncc2C1 (stereo not given) , its RP-LC retention time was 777

Lab note: measured RP-LC retention time of `Cc1cc(C)c(Nc2ccnc(Nc3ccc(C#N)cc3)n2)c(C)c1` was 798

Per the records, this compound ( `O=C(NCc1ccccc1F)C1CCN(c2cncnc2N2CCCC2)CC1` ) has RP-LC retention time equal to 641

For reference, reported RP-LC retention time for `CCn1nccc1-c1cccc(-c2noc(-c3ccc(C)cc3)n2)c1` stands at 1310

# RP-LC retention time of `Cc1cc(C)cc(OCc2nc(CCN(C)C(=O)NCc3ccccc3)no2)c1` = 980

Lab note: measured RP-LC retention time of `c1ccc(-n2nnnc2N2CCN(c3ccccn3)CC2)cc1` was 571

CCOc1ccc(NC(=O)C2CCCN(c3ccc(=O)n(-c4ccc(C)c(Cl)c4)n3)C2)cc1 (stereo not given) has a reported RP-LC retention time of 1010

The compound identified as COc1cc(C(=O)N(Cc2cccs2)C2CCS(=O)(=O)C2)cc(OC)c1OC (stereo not given) registered its RP-LC retention time at 702

Memo: `Cc1ccc(C(=O)Nc2cccn3nc(C(C)C)nc23)cc1C` , reported RP-LC retention time: 1030

GET /value?item= `COc1ccc(C)cc1NC(=O)N1CCN(Cc2nc3cc(C)ccc3o2)CC1` &field=RP-LC retention time returns 761

---

As shown below, each of these compounds has a reported RP-LC retention time value.
Assay: gradient 5% acetonitrile 3 min, to 50% in 2 min, to 85% in 15 min, held 3 min, 100 µL/min
Settings: column: Zorbax Extend-C18 2.1 x 50 mm; eluents: water / acetonitrile, 0.1% formic acid
State just the number; it will be interpreted in s.

Example compounds with recorded RP-LC retention time:
CCCNc1nc(-c2ccccc2Cl)nc2ccccc12
702
CC(=O)N1CCc2cc(N3CC(C(=O)NCc4ccccc4Cl)CC3=O)ccc21 (stereo not given)
708
Cc1oc(C(C)C)nc1C(=O)NCc1ccccc1C(F)(F)F
1050
CCc1cccc(C)c1NC(=O)Cn1cnc2nc(N3CCCC(C(=O)NC4CC4)C3)sc2c1=O (stereo not given)
694
Cc1noc(C)c1Cc1c(C(=O)NCCn2c(C)cnc2C)noc1C
601
Cc1cccc(-c2ncccc2CNS(=O)(=O)c2ccccc2Cl)c1
732
Cc1cnc(C(=O)NC2C[C@H]3CC[C@@H](C2)N3C(=O)C2CC2)cn1 (stereo not given in full)
606
CCN(CC)C(=O)N1CC(Oc2ccc(-c3nc(C)no3)cc2)C1
824
COc1ccc(NC(=O)Cn2nc3n(c2=O)CCCCC3)cc1Cl
692

Continue with the next compound.
Form field RP-LC retention time, entry COc1cccc(NC(=O)CN2C(=O)NC3(CCC(C)CC3)C2=O)c1 (stereo not given) : 789

---

RP-LC retention time overview
Experiment: gradient 5% acetonitrile 3 min, to 50% in 2 min, to 85% in 15 min, held 3 min, 100 µL/min
Conditions: column: Zorbax Extend-C18 2.1 x 50 mm; eluents: water / acetonitrile, 0.1% formic acid
Give the quantity in s, number only.

Check out these entries, answers already filled in.
Cc1ccc(NC(=O)CN2C(=O)CCCc3cc(S(=O)(=O)N4CCCC4)ccc32)c(C)c1
852
CN1CCN(C(CNC(=O)Cc2ccc(Cl)cc2)c2ccc3c(c2)OCO3)CC1 (stereo not given)
587
O=c1c2cc(-c3ccc(F)cc3)nn2ccn1Cc1noc(CN2CCCCC2)n1
656

# context switch: different molecule, same RP-LC retention time
So, `CC(=O)Nc1ccc(NC(=O)c2ccc(-c3ccnc(N4CCCC4)n3)cc2)cc1` ? Its RP-LC retention time was 663
